Please provide measured IC50 for the entries that follow.
target: HLA-DR molecule encoded by the allele DRB1*0101 (human); assay: competition ELISA vs biotinylated HA 306-318
Answers are plain numbers, in µM.

GKWSKSSVVGWPTVR (modifications not checked) [Nef1.1 peptide (positions 3-17 of the HIV-1 Nef protein, Bru strain), P03406 3-17] | 1.25

Field: IC50. Fill in for each record below.
1. ERMRRAEPAADGVGA (modifications not checked) [Nef1.5 peptide (positions 18-32 of the HIV-1 Nef protein, Bru strain), P03406 18-32]
2. LTFGWCYKLVPVEPD (modifications not checked) [Nef10.1 peptide (positions 137-151 of the HIV-1 Nef protein, Bru strain), P03406 137-151]
3. PTVRERMRRAEPAAD (modifications not checked) [Nef1.4 peptide (positions 14-28 of the HIV-1 Nef protein, Bru strain), P03406 14-28]
4. DLSHFLKEKGGLEGL (modifications not checked) [Nef5 peptide (positions 86-100 of the HIV-1 Nef protein, Bru strain), P03406 86-100]
5. YKLVPVEPDKVEEAN (modifications not checked) [Nef10.4 peptide (positions 143-157 of the HIV-1 Nef protein, Bru strain), P03406 143-157]
6. EWRFDSRLAFHHVAREL (modifications not checked) [Nef13 peptide (positions 182-198 of the HIV-1 Nef protein, Bru strain), P03406 182-198]

Marked response:
2.75
0.15
1.4
6
9
5
